Quick reference: protein stability index of the listed items.
B1: EPB41L3 (parent)
chain: KKFLTLGSKFRYSGRTQAQTRRAS

Variants of: B1
assay-details: protein stability index of a GFP-peptide fusion (GPS, HEK-293T) (PSI 1-6); higher = more stable;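 further: lentivirally expressed fusions sorted by FACS into six bins by GFP to DsRed ratio, PSI derived from sequencing read proportions per bin multiplied by bin number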
test-parameters: c terminus: a fixed tail appended
Give the figure by itself; no unit, no explanation.

variant-id: F10P
protein stability index: 4.07

variant-id: A23R
protein stability index: 4.08

variant-id: R15K
protein stability index: 2.85

variant-id: F10M
protein stability index: 3.59

Input: Identify protein stability index associated with the variant `G14V`
Output: 2.96

Input: Identify protein stability index associated with the variant `R15E`
Output: 2.89

Input: Identify protein stability index associated with the variant `A23M`
Output: 2.49

The reported numbers originate from the supplement of paper PMC10567573.
